molecular target: UniProt:Q9UIQ6

{"test smiles": "CC(C)[C@H](N)CN[C@@H](Cc1ccc(O)cc1)C(=O)N[C@H](CN[C@@H](Cc1c[nH]cn1)C(=O)N1CCC[C@H]1C(=O)N[C@@H](Cc1ccccc1)C(=O)O)C(C)C", "target": "UniProt:Q9UIQ6", "IC50": "845 nM"}

---

target: IRAP (Homo sapiens, UniProt Q9UIQ6); construct: expressed in transfected cells; host or cells: HEK 293T cells (solubilised membrane protein); experiment: Degradation of peptides by IRAP expressed in HEK 293T cells, HPLC with mass spectrometric detection; assay type: biochemical; conditions: up to 6 hr
Sequence (Q9UIQ6 whole entry): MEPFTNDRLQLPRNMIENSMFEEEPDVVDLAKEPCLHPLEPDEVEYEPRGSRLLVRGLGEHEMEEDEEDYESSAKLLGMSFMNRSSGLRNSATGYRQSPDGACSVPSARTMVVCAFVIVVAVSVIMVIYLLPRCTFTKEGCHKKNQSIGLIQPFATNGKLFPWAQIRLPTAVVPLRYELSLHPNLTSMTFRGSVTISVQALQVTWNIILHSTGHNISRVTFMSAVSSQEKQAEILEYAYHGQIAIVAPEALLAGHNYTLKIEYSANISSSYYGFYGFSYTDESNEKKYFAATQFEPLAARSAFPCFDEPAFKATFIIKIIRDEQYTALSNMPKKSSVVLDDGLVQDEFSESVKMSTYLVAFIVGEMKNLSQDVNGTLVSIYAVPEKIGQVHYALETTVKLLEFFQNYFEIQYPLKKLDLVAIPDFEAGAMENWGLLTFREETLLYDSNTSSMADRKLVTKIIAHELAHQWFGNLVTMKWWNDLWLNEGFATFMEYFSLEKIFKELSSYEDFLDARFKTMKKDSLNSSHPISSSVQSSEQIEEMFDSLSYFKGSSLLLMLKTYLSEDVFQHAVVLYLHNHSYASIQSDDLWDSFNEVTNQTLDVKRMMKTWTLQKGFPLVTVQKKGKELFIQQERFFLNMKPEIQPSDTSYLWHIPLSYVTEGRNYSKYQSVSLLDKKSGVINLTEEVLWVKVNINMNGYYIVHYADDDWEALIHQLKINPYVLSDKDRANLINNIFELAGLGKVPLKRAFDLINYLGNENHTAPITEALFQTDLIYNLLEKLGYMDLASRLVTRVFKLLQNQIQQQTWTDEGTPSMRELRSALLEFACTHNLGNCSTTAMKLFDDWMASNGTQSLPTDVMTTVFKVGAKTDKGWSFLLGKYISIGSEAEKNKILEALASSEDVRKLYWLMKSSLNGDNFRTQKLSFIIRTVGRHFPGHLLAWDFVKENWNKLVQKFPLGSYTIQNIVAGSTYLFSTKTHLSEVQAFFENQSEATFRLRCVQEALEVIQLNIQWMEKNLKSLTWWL
recorded metric: cleavage by IRAP

{"substance": "Ang I: angiotensin peptide (DRVYIHPFHL)", "recorded metric": "cleavage by IRAP", "reported result": "no cleavage"}
{"substance": "angiotensin II (DRVYIHPF) [Ang II]", "recorded metric": "cleavage by IRAP", "reported result": "no cleavage"}
